Where do these numbers come from? They come from PubChem BioAssay AID493086.

testedOn: Induced myeloid leukemia cell differentiation protein Mcl-1 (Homo sapiens)
assayInfo: MCL1 binding to BIM-BH3 peptide, inhibitors, late-stage follow-up, biochemical, fluorescence polarization, assay provider data, powder samples (AID 493086)
experimentalParameters: GST-MCL1 / FITC-BIM-BH3 fluorescence polarization
Activity calls are given as the source filed them.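 Rule for the calls: active = IC50 at or below 10 µM; inactive = IC50 above 10 µM.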
assayEndpoint: IC50

smilesRepresentation	testedOn	assayEndpoint	obsValue
O=C(CCn1nnc2ccccc21)Nc1nnc(Cc2ccccc2)s1	Induced myeloid leukemia cell differentiation protein Mcl-1 (Homo sapiens)	IC50	> 20 µM (inactive)
COCCCN(C(=O)c1cc(-c2ccco2)nc2ccccc12)c1c(N)n(Cc2ccccc2)c(=O)[nH]c1=O	Induced myeloid leukemia cell differentiation protein Mcl-1 (Homo sapiens)	IC50	> 20 µM (inactive)

Let us move to another entry and its IC50.
input: # return recorded IC50 for entry "CCCC(=O)Nc1nnc(Cc2ccccc2)s1"
output: > 20 µM (inactive)

---

# reported IC50; entries follow
testedOn: Induced myeloid leukemia cell differentiation protein Mcl-1 (Homo sapiens) (UniProt Q07820)
Sequence (Q07820 whole entry, looked up): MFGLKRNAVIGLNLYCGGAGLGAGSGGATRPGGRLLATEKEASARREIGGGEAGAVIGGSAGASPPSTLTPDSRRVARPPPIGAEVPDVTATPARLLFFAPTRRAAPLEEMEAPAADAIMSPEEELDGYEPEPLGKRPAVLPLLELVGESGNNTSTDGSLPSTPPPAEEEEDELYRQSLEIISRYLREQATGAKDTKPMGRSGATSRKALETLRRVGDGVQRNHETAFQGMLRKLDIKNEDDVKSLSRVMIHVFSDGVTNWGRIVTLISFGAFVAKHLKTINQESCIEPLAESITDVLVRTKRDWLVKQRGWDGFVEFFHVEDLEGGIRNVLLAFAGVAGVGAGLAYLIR
assayInfo: MCL1 binding to BIM-BH3 peptide, inhibitors, late-stage follow-up, biochemical, fluorescence polarization, assay provider data, powder samples (AID 493086)
experimentalParameters: GST-MCL1 / FITC-BIM-BH3 fluorescence polarization
Active and inactive are the calls of the source.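 Rule for the calls: active = IC50 at or below 10 µM; inactive = IC50 above 10 µM.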

COc1ccc(Cc2nnc(NC(=O)Cc3ccc4c(c3)OCO4)s2)cc1OC > 20 µM (inactive)

Let us move to another entry and its IC50.
input: # return recorded IC50 for entry "O=C(c1cc(-c2ccco2)nc2ccccc12)N(Cc1nnc(-c2ccc(Cl)cc2)o1)C1CC1"
output: > 20 µM (inactive)
